# test_details: basal HepG2 mitochondrial membrane potential changes, profiling panel, cell-based, JC-1 fluorescence, 24 h, 100 nL compound (AID 1167); also: test concentration not given here
# condition_info: higher = more signal
Entries annotated with measured z-score
Answer as a number with no unit attached.

A selection of reference data follows.
Cc1ccc(F)cc1S(=O)(=O)N[C@@H]1CCN(Cc2ccc(-c3ccccc3)cc2)C1 : -1.82
CC(C)c1ccc(NN2C(C(O)c3cccc(O)c3)C=CC3C(=O)N(c4ccccc4)C(=O)C32)cc1 (stereo not given) : -1.85
CC(C)(C)N1CC=CC23O[C@@H]4C=CCOC(=O)[C@@H]4[C@H]2C(=O)N(CCCCCO)[C@@H]3C1=O (stereo not given in full) : -0.667
C=C(C(=O)CC[C@H](OC(C)=O)c1ccc(OCCO)cc1)C(C)C : -1.05
CN(C)CCCCCCNC(=O)[C@H]1C[C@H]2C(=O)N[C@@H](CCCCN)C(=O)N2[C@H]1c1ccc(O)cc1 : 0.758
COCCOC(=O)N1C(=O)[C@@]2(c3cc(C#CC4=CCCCC4)ccc31)[C@H](C(=O)NC[C@H](O)c1ccccc1)[C@H]1C(=O)O[C@H](c3ccccc3)[C@H](c3ccccc3)N1[C@@H]2c1ccc(O)cc1 : -2.71
COC(=O)[C@@]1(Cc2ccccc2N=[N+]=[N-])COC(c2ccc(OCCCO)cc2)=N1 : -0.472
COc1cc2c(cc1OC)CN(C(=O)[C@@H]1[C@H]3C(=O)O[C@H](c4ccccc4)[C@H](c4ccccc4)N3[C@H](c3ccccc3OCCO)[C@@]13C(=O)Nc1ccc(C#CCNC(N)=O)cc13)CC2 : -1.74
Cc1cc(C)c(C(O)C2C=CC3C(=O)N(C)C(=O)C3N2Nc2ccccc2)c(C)c1 (stereo not given) : -1.73
CC(C)N1C(=O)c2ccccc2[C@@H](C(=O)NCCCN(C)C)[C@@H]1c1ccc(CO)cc1 : 1.09

Form field: reported z-score of CCC(CC)C(O)C1C=CC2C(=O)N(c3ccccc3)C(=O)C2N1Nc1ccc(C#N)cc1 (stereo not given) -1.03

Form field: reported z-score of CCOC(=O)C[C@H]1[C@H](OC(=O)Cc2ccc3c(c2)OCO3)[C@@H](NC(=O)C2CCCCC2)c2cc(OCCCO)ccc2N1C(=O)Cc1ccc(OC)cc1 2.39
